# Tested on: Plasma
# PROTOCOL DETAILS: Plasma concentration in Sprague-Dawley rat at 10 mg/kg, po by LC-MS/MS analysis
# Format: ADME, organism-based
# Design: dose 10 mg/kg, route oral
# RECORDED CONDITIONS: in vivo
Record form. Attribute: concentration. Fill in for each entry.

Tell me concentration reported for "CC(C)S(=O)(=O)NC[C@H]1CC[C@H](NC(=O)Cn2c(=O)sc3cc(Cl)ccc32)CC1"
870 nM

Fill in concentration for record "CC(C)S(=O)(=O)NC[C@H]1CC[C@H](NC(=O)Cn2ccc3cc(F)c(F)cc32)CC1"
2080 nM

Return concentration (reported value) for this compound: "Cc1ccc2c(c1)CCN2CC(=O)N[C@H]1CC[C@H](CNS(=O)(=O)C(C)C)CC1"
6140 nM

---

# Test system: Plasma
# PROTOCOL DETAILS: Plasma concentration in Sprague-Dawley rat at 10 mg/kg, po by LC-MS/MS analysis
# Assay type: ADME, organism-based
# Set-up: dose 10 mg/kg, route oral
# RECORDED CONDITIONS: in vivo
Cut-off 900 nM on concentration, inclusive. At or above means T; below means F.

Assess whether reported concentration for "CC(C)S(=O)(=O)NC[C@H]1CC[C@H](NC(=O)CN2CCOc3cc(Cl)ccc32)CC1" sits at 900 nM or higher.
F

# check: concentration of "CC(C)S(=O)(=O)NC[C@H]1CC[C@H](NC(=O)Cn2ccc3cc(Cl)ccc32)CC1" is greater than or equal to 900 nM
F

Test whether the molecule "CC(C)S(=O)(=O)NC[C@H]1CC[C@H](NC(=O)CN2CCc3cc(Cl)ccc32)CC1" records concentration of 900 nM or higher.
T

Determine whether measured concentration meets or exceeds 900 nM for "CC(C)S(=O)(=O)NC[C@H]1CC[C@H](NC(=O)CN2C(=O)COc3cc(Cl)ccc32)CC1"
F

Hi, just wondering whether "CC(C)S(=O)(=O)NC[C@H]1CC[C@H](NC(=O)CN2CCc3c2ccc(F)c3F)CC1" shows concentration of 900 nM or higher.
T

Is concentration for "CC(C)S(=O)(=O)NC[C@H]1CC[C@H](NC(=O)CN2CC(C)(C)c3cc(Cl)ccc32)CC1" at or above 900 nM?
F

Hi, just wondering whether "CC(C)S(=O)(=O)NC[C@H]1CC[C@H](NC(=O)Cn2c(=O)oc3ccccc32)CC1" shows concentration of 900 nM or higher.
T

Exam item: decide whether the reported concentration for "CC(C)S(=O)(=O)NC[C@H]1CC[C@H](NC(=O)CN2CCCc3cc(Cl)ccc32)CC1" is at least 900 nM.
F

---

# Test system: Plasma
# PROTOCOL DETAILS: Plasma concentration in Sprague-Dawley rat assessed as 2-(5-chloro-1H-indol-1-yl)-N-(4-((propan-2 ylsulfonamido)methyl)cyclohexyl)acetamide level at 10 mg/kg, po after 1 hr by LC-MS/MS analysis
# Type: ADME, organism-based
# Design: dose 10 mg/kg, route oral
# RECORDED CONDITIONS: in vivo
METRIC NAME: concentration (µM)
Kindly answer with a numeric value in µM, unit omitted.

Determine its reported concentration: "CC(C)S(=O)(=O)NC[C@H]1CC[C@H](NC(=O)Cn2ccc3cc(Cl)ccc32)CC1"
8.01

These entries and their values trace back to ChEMBL document CHEMBL2010694.
